- System: SNB-75
- experimentSummary: NCI tumour cell line growth inhibition, 48 h
Active and inactive are the calls of the source. No stated cut-off is given here; in the data, active = GI50 up to about 1.1 µM and inactive = higher.
Outcomes: class 1 for active, class 0 for inactive

>  <compound>
Cc1c2c(n(Cc3ccccn3)c1C)NN=C(C#N)S2(=O)=O

>  <targetOfAssay>
SNB-75

>  <className>
class 0

$$$$
>  <compound>
COc1cn2c(cc1=O)COc1ccc(-c3ccccc3)cc1-2

>  <targetOfAssay>
SNB-75

>  <className>
class 0

$$$$
>  <compound>
Cc1ccc2nc3c(C(=O)NCCN(C)C)cccc3nc2c1

>  <targetOfAssay>
SNB-75

>  <className>
class 0

$$$$
>  <compound>
CCOC(=O)C(=Cc1[nH]c2ccccc2c1-c1c[nH]c2ccccc12)C(=O)OCC

>  <targetOfAssay>
SNB-75

>  <className>
class 0

$$$$
>  <compound>
O=C(O)/C=C\C(=O)Nc1ccc(S(=O)(=O)c2ccc(NC(=O)/C=C\C(=O)O)cc2)cc1

>  <targetOfAssay>
SNB-75

>  <className>
class 0

$$$$
>  <compound>
CC(NC(=O)OC(C)(C)C)C(=O)NC(Cc1ccccc1)C(=O)NCC(=O)ON=C1CCCC1 (stereo not given)

>  <targetOfAssay>
SNB-75

>  <className>
class 0

$$$$
>  <compound>
c1ccc(CSc2nc(N3CCCCC3)c3cn[nH]c3n2)cc1

>  <targetOfAssay>
SNB-75

>  <className>
class 0

$$$$
>  <compound>
CC(=O)OCc1ccc(O)c(C=O)c1

>  <targetOfAssay>
SNB-75

>  <className>
class 0

$$$$
>  <compound>
COc1ccc(S(=O)(=O)N/N=C(\C)CN2C(=O)c3ccccc3C2=O)cc1OC

>  <targetOfAssay>
SNB-75

>  <className>
class 0

$$$$
>  <compound>
C=C(OC1C(C)=C2C(C1OC(=O)CCCCCCC)C(C)(OC(C)=O)CC(OC(=O)CCC)C1(O)C2OC(=O)C1(C)O)/C(C)=C/C (stereo not given)

>  <targetOfAssay>
SNB-75

>  <className>
class 1

$$$$

src = ChEMBL document CHEMBL1201862
